Molecular target: HisF (cyclase subunit of imidazole glycerol phosphate synthase, IGPS) (Thermotoga maritima)
Sequence (Q9X0C6 1-253): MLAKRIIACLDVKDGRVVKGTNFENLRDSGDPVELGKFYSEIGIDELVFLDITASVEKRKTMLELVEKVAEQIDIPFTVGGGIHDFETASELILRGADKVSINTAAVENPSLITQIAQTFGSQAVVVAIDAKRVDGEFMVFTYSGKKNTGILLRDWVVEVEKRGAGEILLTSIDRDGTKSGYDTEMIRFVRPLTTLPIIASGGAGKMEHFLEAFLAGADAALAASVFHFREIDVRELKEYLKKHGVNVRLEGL
Sequence (Q9X0C8 1-201 partner): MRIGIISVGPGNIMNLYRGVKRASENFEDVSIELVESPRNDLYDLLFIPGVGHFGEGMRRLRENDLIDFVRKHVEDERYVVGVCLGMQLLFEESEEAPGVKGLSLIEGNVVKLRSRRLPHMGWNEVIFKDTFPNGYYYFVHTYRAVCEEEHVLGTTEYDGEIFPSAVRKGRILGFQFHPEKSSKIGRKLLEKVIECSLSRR
Assay: 1H-15N TROSY NMR titration, global fit of chemical shift changes of […] residues
measure: Kd (µM)
// return numeric value only (unit: µM, not printed)

Q) Returns the measured Kd for the input compound. Input: O=P(O)(O)OC[C@@H](O)[C@@H](O)c1c[nH]cn1
A) 500
